Quick list: % ILS per entry.
# Tested on: S180 ascites
# TEST_DESCRIPTION: Anti-Tumor Screening; S180 ascites in mice (% increase in life span, survivors)
# Assay type: in vivo, female CFW Swiss mice
# CONDITION: 40 mg/kg
Write the number in % without appending the unit.

Worked set:
{"columns": ["MOLECULE", "MEASURED_ON", "ENDPOINT", "MEASURED_NUMBER"],
 "data": [
  ["CC(C)(C(=O)[O-])C(=O)[O-].CC(C)(C(=O)[O-])C(=O)[O-].[K+].[K+].[Pd+2]", "S180 ascites", "% ILS", -8],
  ["O=C([O-])CC(=O)[O-].O=C([O-])CC(=O)[O-].[K+].[K+].[Pd+2] [K2 [Pd(Malonate)2]]", "S180 ascites", "% ILS", -12],
  ["O=C([O-])C1(C(=O)[O-])CCC1.O=C([O-])C1(C(=O)[O-])CCC1.[K+].[K+].[Pd+2]", "S180 ascites", "% ILS", 7]
]}

API: the following record is the query input.
stdin: So what does the record say about % ILS for O=C([O-])C(=O)C(=O)[O-].O=C([O-])C(=O)C(=O)[O-].[K+].[K+].[Pd+2] [Example 2, Potassium Bis(Ketomalonato)palladate(II)] ?
stdout: 4
